Experiment: NCI Yeast Anticancer Drug Screen. Data for the mec2-1 strain (AID 157)
Settings: S. cerevisiae mec2-1 strain, at 50.0 µM, hits give high values
About 79,000 compounds went through this panel and 15% of them were active in at least one assay; those are over-represented in the sample as a whole.
Could you please report measured growth inhibition for the items listed next?
Give bare numbers, in %.

[
  {
    "compound": "O=S(=O)(CC1=NC2C=CC=CC2N=C1)NCc1ccccc1 (centres undefined)",
    "growth inhibition / %": -18.9
  }
]

Below are some compounds; for each one, tell me its growth inhibition.
1. Cc1cc(C)c(NC(N)=S)cc1C
2. CCc1ccccc1OCC1CO1 (centres undefined)
3. C(=C\c1ccc(/C=C/c2ccccc2)nn1)/c1ccccc1
4. NNS(=O)(=O)c1ccc(Oc2ccc(S(=O)(=O)NN)cc2)cc1

A.
1. -23.2
2. 3.5
3. -3.1
4. 10.1

====

Test: NCI Yeast Anticancer Drug Screen. Data for the sgs1 mgt1 strain (AID 161);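 further: 0% = growth of cultures given vehicle only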
Details: S. cerevisiae sgs1 mgt1 strain, at 50.0 µM, hits give high values
The panel holds about 79,000 compounds, 15% with a hit somewhere; the sample as a whole holds those more often.
Could you please report measured growth inhibition for the items listed next?
One number for each entry, in %.

Use the examples below as a reference point.
[
  {
    "compound": "C=CC(CO)N(CC)CC (stereo not given)",
    "unit-descriptor": "%",
    "growth inhibition": 7.25
  },
  {
    "compound": "Cc1ccc(CSCc2c(CSCc3ccc(C)cc3)c(CSCc3ccc(C)cc3)c(CSCc3ccc(C)cc3)c(CSCc3ccc(C)cc3)c2CSCc2ccc(C)cc2)cc1",
    "unit-descriptor": "%",
    "growth inhibition": 5.8
  }
]

Below are some compounds; for each one, tell me its growth inhibition.
1. CC(=O)NN
2. OC(c1ccccc1)C1(O)CCCCC1 (stereo not given)
3. CC(=O)OC1CCC2(C)C(=CCC3C2CCC2(C)C3CC(Br)C2(O)C(C)=O)C1 (stereo not given)
4. CC(C)(CO)NC(=O)c1ccccc1Br
5. CC#CCN(C(C)C)C(C)C
6. COc1cc(C2c3cc4c(cc3OC(C)(N3CCCC3)C2C)OCO4)cc(OC)c1OC (stereo not given)
7. COc1cc(C)nc2ccc(C(=O)c3ccccc3)cc12

A.
[-0.8, -1.7, 15, -8.6, -11.4, -9.8, 31.6]

Below are some compounds; for each one, tell me its growth inhibition.
1. CCOc1cc(=O)cc2n(-c3cc(OCC)c(OC)c(OCC)c3)c3ccccc3nc1-2
2. C=CCOCCC(OCC=C)OCC=C
3. CC(C)CNC(=O)C(=O)NCC(C)C

A.
1. 23.6
2. 4.4
3. -1.6

Below are some compounds; for each one, tell me its growth inhibition.
1. CC1CN(C(=O)/C=C/C(=O)OC2CCCCC2)C(C)CN1C(=O)/C=C/C(=O)OC1CCCCC1 (stereo not given)
2. CSC1(C)C(=O)Nc2cc([N+](=O)[O-])ccc21 (stereo not given)
3. O=c1[nH]c(Nc2cccc(Br)c2)nc2nc[nH]c12
4. [O-]/[N+]1=[N+](\[O-])c2ccccc2COCc2ccccc21

A.
1. -7.9
2. 0.6
3. -23.9
4. -12.4

====

Assay: NCI Yeast Anticancer Drug Screen. Data for the sgs1 mgt1 strain (AID 161);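 further: 0% = growth of cultures given vehicle only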
Settings: S. cerevisiae sgs1 mgt1 strain, at 50.0 µM, hits give high values
About 79,000 compounds went through this panel and 15% of them were active in at least one assay; those are over-represented in the sample as a whole.
Criterion: growth inhibition meeting or surpassing 30%. Met: Y. Not met: N.

Some entries whose results are on file:
[
  {
    "smiles-text": "O=S(=O)(c1ccccc1)N1CCCN(S(=O)(=O)c2ccccc2)CC1",
    "assigned-category": "N"
  },
  {
    "smiles-text": "COC(=O)/C(C#N)=C/Sc1ccccc1",
    "assigned-category": "Y"
  },
  {
    "smiles-text": "O=C(O)COc1cc(-c2ccccc2)nc2ccc(F)cc12",
    "assigned-category": "Y"
  },
  {
    "smiles-text": "O=C(NN(Cn1c(=S)sc2ccccc21)Cn1c(=S)sc2ccccc21)c1ccccc1O",
    "assigned-category": "Y"
  },
  {
    "smiles-text": "CCCCCCC(c1c(O)cc(C)[nH]c1=O)c1c(O)cc(C)[nH]c1=O",
    "assigned-category": "N"
  }
]

// switching to the query molecule
Q. Hello, I need to know if `Oc1ccc(Cl)c2cccnc12` has measured growth inhibition not below 30%. Thanks!
A. Y
